Data provenance is paper PMC6522510.

In this section we review reported EC50 values for a set of molecules.
Test system: CMS
protocol_summary: cells
Design: species or system AML cell lines (8); Secondary HTS, 10-point dose-response in triplicate, Cell Titer Glo viability, four-parameter fit EC50
test_context: 72 h, read-out: CMS

INSERT INTO results (molecule, experimental_value) VALUES
  ('Cn1cc(/C=C/C(=O)c2cccc(F)c2)cc1/C=C/C(=O)NO', '> 10 µM'),
  ('Nc1ncnc2c1ncn2[C@@H]1O[C@H](C(=O)N2CCN(CC(=O)Nc3cccc4c3CNC4=O)CC2)[C@@H](O)[C@H]1O', '> 10 µM'),
  ('C=C(c1ccc(C(=O)O)cc1)c1cc2c(cc1C)C(C)(C)CCC2(C)C', '> 10 µM'),
  ('O=C(NOC[C@H](O)CO)c1ccc(F)c(F)c1Nc1ccc(I)cc1F', '> 10 µM'),
  ('CCc1c2c(nc3ccc(OC(=O)N4CCC(N5CCCCC5)CC4)cc13)-c1cc3c(c(=O)n1C2)COC(=O)[C@]3(O)CC', '> 10 µM'),
  ('COc1cc(Nc2c(C#N)cnc3cc(OCCCN4CCN(C)CC4)c(OC)cc23)c(Cl)cc1Cl', '> 10 µM'),
  ('N#CC(=C(/N)Sc1ccccc1N)/C(C#N)=C(\N)Sc1ccccc1N', '> 10 µM'),
  ('CN(Cc1cnc2nc(N)nc(N)c2n1)c1ccc(C(=O)N[C@@H](CCC(=O)O)C(=O)O)cc1 [METHOTREXATE]', '> 10 µM');

Input line: Lab note: need EC50 for "c1ccc(-c2nn3c(c2-c2ccnc4cc(OCCN5CCOCC5)ccc24)CCC3)nc1" on CMS, anyone have it?
Output line: > 10 µM

Input line: Entry "OC[C@H]1NC[C@H](O)[C@@H](O)[C@H]1O" , system CMS: what EC50 was measured?
Output line: > 10 µM

Input line: Give CMS EC50 for "Cn1cncc1[C@@](N)(c1ccc(Cl)cc1)c1ccc2c(c1)c(-c1cccc(Cl)c1)cc(=O)n2C"
Output line: > 10 µM

Input line: Find the measured EC50: item "CCCCCCCCCCCCCCCCCCOP(=O)([O-])OC1CC[N+](C)(C)CC1" , target or system CMS.
Output line: > 10 µM

Input line: Form field: EC50 recorded for "COC(=O)[C@H](CCSC)NC(=O)c1ccc(NC[C@@H](N)CS)cc1-c1ccccc1" with CMS (enter value)
Output line: > 10 µM

Input line: Recorded EC50 for "O=C(c1cn(Cc2cncn2Cc2ccc(Br)cc2)cc1-c1cccc2ccccc12)N1CCOCC1" with CMS, please?
Output line: 3.4 µM

Input line: Under CMS: EC50 value of "N[C@@H]1C[C@H]1c1cc(F)cc(F)c1OCc1ccccc1" ?
Output line: > 10 µM

Input line: Please state recorded EC50 (tested on CMS) of "C/C(=C\C(=O)Nc1ccccc1C(=O)O)c1ccc2ccccc2c1"
Output line: > 10 µM
